Molecular target: EIF2AK3 (PERK) catalytic domain (amino acids 536-1116) (Homo sapiens (Human), UniProt Q9NZJ5)
Sequence (Q9NZJ5 536-1116): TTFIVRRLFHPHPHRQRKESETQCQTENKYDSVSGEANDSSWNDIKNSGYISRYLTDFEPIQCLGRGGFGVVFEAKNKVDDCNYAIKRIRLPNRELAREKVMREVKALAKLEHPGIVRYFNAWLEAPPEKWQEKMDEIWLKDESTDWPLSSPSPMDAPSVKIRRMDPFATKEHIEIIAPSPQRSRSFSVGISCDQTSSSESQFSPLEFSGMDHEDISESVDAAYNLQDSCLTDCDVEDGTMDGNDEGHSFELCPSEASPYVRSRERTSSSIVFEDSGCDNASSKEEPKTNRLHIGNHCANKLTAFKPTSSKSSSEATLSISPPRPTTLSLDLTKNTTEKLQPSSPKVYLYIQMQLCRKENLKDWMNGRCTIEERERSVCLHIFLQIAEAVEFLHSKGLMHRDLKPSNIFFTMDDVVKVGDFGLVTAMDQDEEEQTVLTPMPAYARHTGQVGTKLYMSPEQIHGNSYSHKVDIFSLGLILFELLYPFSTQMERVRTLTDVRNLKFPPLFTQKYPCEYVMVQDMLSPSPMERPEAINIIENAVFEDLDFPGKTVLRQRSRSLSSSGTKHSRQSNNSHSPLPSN
Experiment: PERK in vitro activity assay (isolated), TR-FRET kinase assay
Settings: isolated PERK enzyme, 1.5 μM ATP, GFP-eIF2a substrate; read-out: Biochemical IC50
pIC50: −log10 of the molar value.
MEASURE_NAME: pIC50

Some compounds with known pIC50 results, for comparison:
• Cc1cc(NC(=O)C(O)c2cc(F)cc(F)c2)ccc1-c1cnc(N)c(C(=O)NC(C)C)c1 (stereo not shown) [Example 9] = 7.30 to 7.59
• CC(C)NC(=O)c1cc(-c2ccc(NC(=O)C(O)c3cc(F)cc(F)c3)cc2)cnc1N (stereo not shown) [Example 81] = 6.60 to 7.00
• Cc1cc(NC(=O)Cc2cncc3ccccc23)ccc1-c1cnc(N)c(C(=O)NC(C)C)c1 = 7.00 to 7.29

# input for lookup
Query block: Provide pIC50 value for the following compound: Cc1cc(NC(=O)C(O)c2cccc(C(F)(F)F)c2)ncc1-c1cnc(N)c(C(=O)NC(C)C)c1 (stereo not shown) [Example 128]
Result block: 7.00 to 7.29

---

Molecular target: EIF2AK3 (PERK) catalytic domain (amino acids 536-1116) (Homo sapiens (Human), UniProt Q9NZJ5)
Test: PERK in vitro activity assay (isolated), TR-FRET kinase assay
Conditions: isolated PERK enzyme, 1.5 μM ATP, GFP-eIF2a substrate; read-out: Biochemical IC50
MEASURE_NAME: IC50

- Cc1cc(NC(=O)Oc2ccccc2)ccc1-c1cnc(N)c(C(=O)NC(C)C)c1: 1000 to 2000 nM

Query block: Write down IC50 measured for item Cc1cc(NC(=O)C(F)(F)c2ccccc2)ccc1-c1cnc(N)c(C(=O)NC(C)C)c1
Result block: 101 to 250 nM

Query block: Write down IC50 measured for item CCc1cc(NC(=O)C(O)c2cccc(C)c2)ccc1-c1cnc(N)c(C(=O)NC(C)C)n1 (stereo not shown) [Example 161]
Result block: 51 to 100 nM

Query block: Complete the entry with IC50 for CCc1cccc(C(O)C(=O)Nc2ccc(-c3cnc(N)c(C(=O)NC(C)C)c3)c(CC)c2)c1 (stereo not shown) [Example 107]
Result block: 51 to 100 nM

Query block: // Input: Cc1c(-c2cnc(N)c(C(=O)NC(C)C)c2)ccc(NC(=O)C(O)c2cc(F)cc(F)c2)c1F (stereo not shown) [Example 115] . Output its IC50 only.
Result block: 1 to 25 nM

Query block: Supply reported IC50 belonging to this molecule: Cc1cc(NC(=O)Cc2ccccc2Cl)ccc1-c1cnc(N)c(C(=O)NC(C)C)c1
Result block: 26 to 50 nM

---

Molecular target: EIF2AK3 (PERK) catalytic domain (amino acids 536-1116) (Homo sapiens (Human))
Test: PERK in vitro activity assay (isolated), TR-FRET kinase assay
Settings: isolated PERK enzyme, 1.5 μM ATP, GFP-eIF2a substrate; read-out: Biochemical IC50
Excerpt: PERK In Vitro Activity Assay (Isolated): […] Express and purify HIS-SUMO-GCN2 catalytic domain (amino acids 584-1019) from E. coli. […] Monitor the resulting fluorescence in an EnVison® Multilabel reader (PerkinElmer, Waltham, MA). […]
Measured IC50 accompanies every entry in the list below.

• Cc1cc(NC(=O)C(C)(O)c2ccccc2)ccc1-c1cnc(N)c(C(=O)NC(C)C)c1 (stereo not shown) [Example 4] = 101 to 250 nM

Query block: Specify IC50 for Cc1cc(NC(=O)Cc2ccccc2F)ccc1-c1cnc(N)c(C(=O)NC(C)C)c1 and stop.
Result block: 101 to 250 nM

Query block: Write down IC50 measured for item Cc1cc(NC(=O)C(O)c2cccc(C(F)(F)F)c2)ncc1-c1cnc(N)c(C(=O)NC(C)C)c1 (stereo not shown) [Example 127]
Result block: 251 to 500 nM

Query block: State its IC50 for this compound: Cc1cc(NC(=O)C(O)c2cc(F)cc(F)c2)ccc1-c1cnc(N)c(C(=O)N(C)C)c1 (stereo not shown) [Example 23]
Result block: > 5000 nM

---

Measured IC50 by item
Molecular target: UniProt:Q9NZJ5
Test: PERK cellular assay (TR-FRET, HEK293-EGFP-eIF2α cells, tunicamycin-induced ER stress)
Assay type: cell-based
Conditions: tunicamycin 2 hours, read-out: Cellular IC50 (μM) (EIF2a)
Description: Stable cell lines were created in HEK293 cells using lentiviral particles harboring an expression vector for GFP-eIF2α. Cells were selected using puromycin and enriched using fluorescence activated cell sorting against GFP. […] Cells were lysed and TR-FRET was measured in an EnVision plate reader (PerkinElmer). […] IC50 values were calculated using 4-parameter logistical fitting in XLFit.

Completed entries (count: 4):
• CNc1ncc(-c2ccc(NC(=O)C(O)c3cc(F)cc(F)c3)cc2C)cc1C(=O)NC(C)C (stereo not shown) [Example 175] = > 5 µM
• Cc1cc(NC(=O)C(O)c2cc(F)cc(F)c2)ccc1-c1cnc(N)c(C(=O)OC(C)C)c1 (single isomer, unassigned) [Example 43] = 0.251 to 0.5 µM
• Cc1c(-c2cnc(N)c(C(=O)NC(C)C)c2)ccc(NC(=O)C(O)c2cc(F)cc(F)c2)c1F (stereo not shown) [Example 116] = 1 to 2 µM
• CCc1cc(NC(=O)C(O)c2cccc(C(F)(F)F)c2)ccc1-c1cnc(N)c(C(=O)NC(C)C)c1 (stereo not shown) [Example 110] = 0.001 to 0.025 µM

Query block: // fetch IC50 given entry Cc1cc(NC(=O)C(O)c2cc(F)cc(F)c2)ccc1-c1cnc(N)c(C(=O)NC(C)C)c1 (stereo not shown) [Example 8]
Result block: 0.026 to 0.05 µM

Query block: Supply recorded IC50 for COCCNC(=O)c1cc(-c2ccc(NC(=O)C(O)c3cc(F)cc(F)c3)cc2C)cnc1N (stereo not shown) [Example 54] here.
Result block: 0.051 to 0.1 µM

Query block: Provide measured IC50 value, entry: CCc1cc(NC(=O)C(O)c2cccc(C(F)(F)F)c2)ccc1-c1cnc(N)c(C(=O)NC(C)C)c1 (stereo not shown) [Example 111]
Result block: 0.101 to 0.25 µM

---

Target: EIF2AK3 (PERK) catalytic domain (amino acids 536-1116) (Homo sapiens (Human))
Test: PERK in vitro activity assay (isolated), TR-FRET kinase assay
Conditions: isolated PERK enzyme, 1.5 μM ATP, GFP-eIF2a substrate; read-out: Biochemical IC50
Here, each record is paired with measured IC50 data.

Check out these entries, answers already filled in.
* Cc1cc(NC(=O)C(O)c2cc(F)cc(F)c2)ccc1-c1cnc(N)c(C(=O)NC2CC(O)C2)c1 (stereo not shown) [Example 26] | 1 to 25 nM
* Cc1cc(NC(=O)Cc2ccc(Cl)cc2)ccc1-c1cnc(N)c(C(=O)NC(C)C)c1 [Example 200] | 501 to 1000 nM
* Cc1cc(NC(=O)C(O)c2cc(F)cc(F)c2)ccc1-c1cnc(N)c(C(=O)OC(C)C)c1 (single isomer, unassigned) [Example 42] | 1 to 25 nM

Query block: Report IC50 for Cc1cc(NC(=O)C(O)c2cc(F)cc(F)c2)ccc1-c1cnc(N)c(C(=O)NC2CC2)n1 (stereo not shown) [Example 139]
Result block: 1 to 25 nM

Query block: Return the recorded IC50 value; entry: COc1cc(NC(=O)C(O)c2cc(F)cc(F)c2)ccc1-c1cnc(N)c(C(=O)NC(C)C)c1 (stereo not shown) [Example 112]
Result block: 51 to 100 nM

Query block: // fetch IC50 given entry CCNC(=O)c1nc(-c2ccc(NC(=O)C(O)c3cc(F)cc(F)c3)cc2CC)cnc1N (stereo not shown) [Example 153]
Result block: 1 to 25 nM

Query block: Let me know recorded IC50 for Cc1cc(NC(=O)C(O)c2cc(F)cc(F)c2)c(F)cc1-c1cnc(N)c(C(=O)NC(C)C)c1 (stereo not shown) [Example 126] , thanks.
Result block: 1 to 25 nM

---

Target: PERK (Homo sapiens (Human))
Sequence (Q9NZJ5 30-1116): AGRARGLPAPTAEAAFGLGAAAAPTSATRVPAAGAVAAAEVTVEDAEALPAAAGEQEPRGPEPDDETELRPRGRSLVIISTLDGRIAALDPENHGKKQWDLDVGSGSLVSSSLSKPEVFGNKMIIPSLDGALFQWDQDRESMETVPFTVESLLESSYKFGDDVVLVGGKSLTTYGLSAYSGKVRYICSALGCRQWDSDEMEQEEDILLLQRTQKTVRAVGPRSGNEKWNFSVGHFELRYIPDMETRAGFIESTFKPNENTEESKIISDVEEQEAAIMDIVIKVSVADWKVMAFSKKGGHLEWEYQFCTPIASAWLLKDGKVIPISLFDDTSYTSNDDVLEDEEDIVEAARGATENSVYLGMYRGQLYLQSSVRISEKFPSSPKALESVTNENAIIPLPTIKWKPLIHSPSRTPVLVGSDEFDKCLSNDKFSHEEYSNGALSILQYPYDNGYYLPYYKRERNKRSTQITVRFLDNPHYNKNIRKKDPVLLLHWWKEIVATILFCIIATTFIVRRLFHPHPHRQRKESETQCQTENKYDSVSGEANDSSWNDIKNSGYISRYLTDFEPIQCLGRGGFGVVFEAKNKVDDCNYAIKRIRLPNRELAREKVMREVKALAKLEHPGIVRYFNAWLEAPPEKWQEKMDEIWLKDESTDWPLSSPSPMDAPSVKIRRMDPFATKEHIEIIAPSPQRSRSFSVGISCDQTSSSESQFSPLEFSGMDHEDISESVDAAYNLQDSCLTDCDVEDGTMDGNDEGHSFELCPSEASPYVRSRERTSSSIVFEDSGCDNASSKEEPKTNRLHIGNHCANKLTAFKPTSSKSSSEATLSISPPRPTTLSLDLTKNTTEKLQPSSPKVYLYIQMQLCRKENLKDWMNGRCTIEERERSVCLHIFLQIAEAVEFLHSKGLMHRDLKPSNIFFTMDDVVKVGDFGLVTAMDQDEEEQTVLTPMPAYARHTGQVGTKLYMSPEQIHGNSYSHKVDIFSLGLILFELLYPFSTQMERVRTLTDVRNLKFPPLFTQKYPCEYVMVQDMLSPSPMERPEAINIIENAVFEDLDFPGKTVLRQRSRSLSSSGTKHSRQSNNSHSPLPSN
Test: PERK cellular assay (TR-FRET, HEK293-EGFP-eIF2α cells, tunicamycin-induced ER stress)
Type: cell-based
Conditions: tunicamycin 2 hours, read-out: Cellular IC50 (μM) (EIF2a)
MEASURE_NAME: IC50

- Cc1c(-c2cnc(N)c(C(=O)NC(C)C)c2)ccc(NC(=O)C(O)c2cc(F)cc(F)c2)c1F (stereo not shown) [Example 115]: 0.001 to 0.025 µM
- COC1CC(NC(=O)c2cc(-c3ccc(NC(=O)C(O)c4cc(F)cc(F)c4)cc3C)cnc2N)C1 (stereo not shown) [Example 28]: 0.026 to 0.05 µM
- Cc1cc(NC(=O)C(O)c2cc(F)cc(F)c2)ccc1-c1cnc(N)c(C(=O)NCC(C)C)c1 (stereo not shown) [Example 20]: 0.026 to 0.05 µM

# context switch: different compound, same IC50
Query block: Return IC50 (reported value) for this compound: Cc1cc(NC(=O)[C@H](O)c2cc(F)cc(F)c2)ccc1-c1cnc(N)c(C(=O)NC2CC2)c1
Result block: 0.026 to 0.05 µM
